# measurement_notes: In vitro evaluation of cytotoxicity in C8166 cells infected with HIV-1 IIIB.
# Type: cell-based
# test_parameters: human, read-out: TC50 (the source's name)
assay_endpoint: CC50 (µM)
Write the value in µM as a bare number.

1) OCC1CCC(n2cnc3c(NC4CCCCCCC4)ccnc32)O1 (stereo not given): 10
2) OC[C@H]1O[C@@H](n2cnc3c(NC4CCCCC4)ccnc32)C[C@@H]1O: 100
3) OCC1CCC(n2cnc3c(NC4CC4)ccnc32)O1 (stereo not given): 750
4) OC[C@H]1O[C@@H](n2cnc3c(NC4CCCCC4)cc(Cl)nc32)[C@H](O)[C@@H]1O: 50
5) OC[C@H]1O[C@@H](n2cnc3c(NC4CCCCCC4)cc(Cl)nc32)C[C@@H]1O: 5
6) OCC1CCC(n2cnc3c(NC4CCCC4)ccnc32)O1 (stereo not given): 500

Now for another entry.
Note to self: CC50 recorded for "OC[C@H]1O[C@@H](n2cnc3c(NC4CCC4)cc(Cl)nc32)[C@H](O)[C@@H]1O" was 400

---

# study_system: Adenosine deaminase (Bos taurus, UniProt P56658)
# Sequence (P56658 whole entry): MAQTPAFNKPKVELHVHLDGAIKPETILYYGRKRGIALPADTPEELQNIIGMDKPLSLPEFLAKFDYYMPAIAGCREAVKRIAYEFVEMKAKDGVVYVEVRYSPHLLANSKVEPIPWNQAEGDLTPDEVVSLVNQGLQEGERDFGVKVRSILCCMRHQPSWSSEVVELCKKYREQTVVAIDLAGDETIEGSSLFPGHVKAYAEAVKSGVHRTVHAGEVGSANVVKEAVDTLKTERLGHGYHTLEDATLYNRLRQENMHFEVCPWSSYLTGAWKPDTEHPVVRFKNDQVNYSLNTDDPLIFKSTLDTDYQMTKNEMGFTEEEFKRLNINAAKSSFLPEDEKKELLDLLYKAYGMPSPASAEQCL
Below, each entry is listed with its recorded pKi.
For clarity, pKi is expressed as the negative log10 of concentration in mol/L.

Observed pKi on Adenosine deaminase (Bos taurus, UniProt P56658), entry "OC[C@H]1O[C@@H](n2cnc3c(NC4CCCC4)ccnc32)C[C@@H]1O" , equals 4.66

---

# measurement_notes: In vitro evaluation of cytotoxicity in C8166 cells infected with HIV-1 IIIB.
# Type: cell-based
# test_parameters: human, read-out: TC50 (the source's name)
Parameter CC50: see the listing below.

1. OCC1CCC(n2cnc3c(NC4CCCCCCC4)cc(Cl)nc32)O1 (stereo unspecified): 10 µM
2. OCC1CCC(n2cnc3c(NC4CC4)cc(Cl)nc32)O1 (stereo unspecified): > 100 µM
3. OCC1CCC(n2cnc3c(NC4CCC4)ccnc32)O1 (stereo unspecified): 400 µM
4. Nc1ccnc2c1ncn2C1CCC(CO)O1 (stereo unspecified): > 100 µM

Lookup result for "OC[C@H]1O[C@@H](n2cnc3c(NC4CCCCCC4)ccnc32)C[C@@H]1O" ; measured CC50: 80 µM

// field: CC50; key: OC[C@H]1OC(n2cnc3c(NC4CCCCCC4)cc(Cl)nc32)[C@H](O)[C@@H]1O (stereo partly specified) ; value = 50 µM

Noted for "OC[C@H]1O[C@@H](n2cnc3c(NC4CCCC4)ccnc32)C[C@@H]1O" : its CC50 reads 400 µM
